Target: BRAF (Homo sapiens)
Construct: purchased Eurofins Genomics KK; (BRAF); Thermo Fisher Scientific Inc. (MEK1)
Sequence (P15056 417-766 limits assumed): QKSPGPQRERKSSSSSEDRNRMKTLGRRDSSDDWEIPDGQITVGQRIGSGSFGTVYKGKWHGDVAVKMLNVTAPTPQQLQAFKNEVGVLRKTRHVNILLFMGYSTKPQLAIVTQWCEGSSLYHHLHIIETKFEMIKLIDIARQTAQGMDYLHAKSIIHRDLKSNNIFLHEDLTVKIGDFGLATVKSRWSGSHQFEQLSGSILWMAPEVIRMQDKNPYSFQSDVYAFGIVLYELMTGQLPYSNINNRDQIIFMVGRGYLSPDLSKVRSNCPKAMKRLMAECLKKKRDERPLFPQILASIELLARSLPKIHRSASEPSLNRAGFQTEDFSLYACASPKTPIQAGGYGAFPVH
Test: BRAF-inhibiting activity, time-resolved fluorescence-fluorescence resonance energy transfer assay
Type: biochemical
Conditions: read-out: BRAF IC50; Table 3
Reported values of pIC50 for individual entries
Notebook: values listed as pIC50 are -log10 of the concentration (mol/L).

CC1(NS(=O)(=O)Nc2cccc(Cc3cc(C(=O)NC4CC4)c(Nc4ccc(I)cc4F)c(F)c3F)c2F)CCC1; 7.47

So what does the record say about pIC50 for CC(C)S(=O)(=O)Nc1cccc(Oc2cncc(Nc3ccc(I)cc3F)c2C(N)=O)c1 [Ref-3, reference compound] ?
7.92

Item: CONC(=O)c1cc(Cc2cccc(NS(=O)(=O)NC3(C)CCC3)c2F)c(F)c(F)c1Nc1ccc(I)cc1F
7.74

Can you handle Cn1c(Nc2ccc(I)cc2F)c(C(=O)NC2CC2)cc(Cc2ccnc(NS(=O)(=O)NC3CC3)c2F)c1=O next?
8.15

Now consider CNS(=O)(=O)Nc1nccc(Oc2cc(C(N)=O)c(Nc3ccc(I)cc3F)c(F)c2F)c1F and answer again.
7.92

Item: COCCNS(=O)(=O)Nc1nccc(Cc2cc(C(=O)NOC)c(Nc3ccc(I)cc3F)c(F)c2F)c1F
8.52

Now the molecule COCCS(=O)(=O)Nc1cccc(Cc2cc(C(N)=O)c(Nc3ccc(I)cc3F)c(F)c2F)c1
8.30

Thanks! And NC(=O)c1cc(Cc2cccc(NS(=O)(=O)C3COC3)c2F)c(F)c(F)c1Nc1ccc(I)cc1F ?
7.62

Also, Cn1c(Nc2ccc(I)cc2F)c(C(N)=O)cc(Cc2cccc(NS(=O)(=O)C3(C)CC3)c2F)c1=O please.
7.82

// same read-out, input: CNS(=O)(=O)Nc1cccc(Cc2cc(C(N)=O)c(Nc3ccc(I)cc3F)c(F)c2F)c1F
8.22

Please give the result for NS(=O)(=O)Nc1nccc(Cc2cc(C(=O)NC3CC3)c(Nc3ccc(I)cc3F)c(F)c2F)c1F too.
8.30

---

Target: MEK1 (Homo sapiens)
Construct: purchased Thermo Fisher Scientific Inc. (MEK1, CRAF); Carna Biosciences, Inc. (ERK2)
Sequence (Q02750 whole entry): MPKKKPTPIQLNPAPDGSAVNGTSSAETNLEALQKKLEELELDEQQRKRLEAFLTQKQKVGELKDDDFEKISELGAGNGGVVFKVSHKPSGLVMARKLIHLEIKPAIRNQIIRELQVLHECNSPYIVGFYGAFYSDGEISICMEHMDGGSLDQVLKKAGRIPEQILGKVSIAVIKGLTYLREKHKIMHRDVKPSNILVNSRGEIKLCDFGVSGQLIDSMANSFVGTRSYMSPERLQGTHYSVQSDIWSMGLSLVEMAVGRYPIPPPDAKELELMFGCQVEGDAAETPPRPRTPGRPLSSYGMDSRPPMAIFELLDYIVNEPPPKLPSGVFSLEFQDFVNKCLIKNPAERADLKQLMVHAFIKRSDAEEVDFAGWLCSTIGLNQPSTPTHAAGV
Assay: MEK1-inhibiting activity, fluorescent polarization method (CRAF/MEK1/ERK2 cascade, IMAP)
Type: biochemical
Details: Table 3; read-out: MEK1 IC50
Recorded pIC50 for the following compounds
pIC50 is a log-scale quantity: -log10 of the concentration expressed in molar.

Cn1c(Nc2ccc(I)cc2F)c(C(=O)NC2CC2)cc(Cc2cccc(NS(=O)(=O)C3(C)CC3)c2F)c1=O; 6.56
CC1(NS(=O)(=O)Nc2nccc(Cc3cc(C(N)=O)c(Nc4ccc(I)cc4F)c(F)c3F)c2F)CC1; 7.46
NC(=O)c1cc(Cc2ccnc(NS(=O)(=O)NC34CC(C3)C4)c2F)c(F)c(F)c1Nc1ccc(I)cc1F; 7.89

Here is another compound to look at.
Any idea what its pIC50 is? The compound is NS(=O)(=O)Nc1nccc(Cc2cc(C(=O)NC3CC3)c(Nc3ccc(I)cc3F)c(F)c2F)c1F
7.51

---

Assay: Human liver microsome stability
Assay type: in vitro ADME
Details: human liver microsomes, pH 7.4
Reported microsomal CLint at 0.99 µM values for the following compounds.

Known results for compounds:
NS(=O)(=O)Nc1cccc(Cc2cc(C(=O)NC3CC3)c(Nc3ccc(I)cc3F)c(F)c2F)c1F; 11 µL/min/mg
CNS(=O)(=O)Nc1nccc(Cc2cc(C(N)=O)c(Nc3ccc(SC(F)F)cc3F)c(F)c2F)c1F; 39 µL/min/mg
CNS(=O)(=O)Nc1cccc(Oc2cc(F)cc(Nc3ccc(I)cc3F)c2C(N)=O)c1 [Ref-2, reference compound]; 12 µL/min/mg

Quick check: microsomal CLint at 0.99 µM of NC(=O)c1cc(Cc2cccc(NS(=O)(=O)C3CC3)c2F)c(F)c(F)c1Nc1ccc(I)cc1F ?
18 µL/min/mg

---

Each entry below lists one item and its recorded IC50 value.
Target: MEK1 (Homo sapiens)
Construct: purchased Thermo Fisher Scientific Inc. (MEK1, CRAF); Carna Biosciences, Inc. (ERK2)
Assay: MEK1-inhibiting activity, fluorescent polarization method (CRAF/MEK1/ERK2 cascade, IMAP)
Assay type: biochemical
Settings: Table 3; read-out: MEK1 IC50
Field format: number, assumed nM, no unit text.

Below are worked cases with known answers.
CCCS(=O)(=O)Nc1nccc(Cc2cc(C(N)=O)c(Nc3ccc(I)cc3F)c(F)c2F)c1F; 47
CNS(=O)(=O)Nc1nccc(Cc2cc(C(N)=O)c(Nc3ccc(I)cc3F)cc2F)c1F; 25
CCS(=O)(=O)Nc1cccc(Cc2cc(C(=O)NOC(C)(C)C)c(Nc3ccc(I)cc3F)c(F)c2F)c1F; 86

State the recorded IC50 for this entry: CNS(=O)(=O)Nc1nccc(Cc2cc(C(N)=O)c(Nc3ccc(I)cc3F)c(F)c2F)c1F
5

Same lookup for Cn1c(Nc2ccc(I)cc2F)c(C(N)=O)cc(Cc2ccnc(NS(=O)(=O)NC3CC3)c2F)c1=O , please.
29

Another: CNS(=O)(=O)Nc1nccc(Cc2cc(C(=O)NOC)c(Nc3ccc(C4CC4)cc3F)c(F)c2F)c1F
6

# repeat for CCS(=O)(=O)Nc1nccc(Cc2cc(C(=O)NC3CC3)c(Nc3ccc(I)cc3F)c(F)c2F)c1F
41

---

IC50 values for the molecules below.
Biological target: MEK1 (Homo sapiens)
Construct: purchased Thermo Fisher Scientific Inc. (MEK1, CRAF); Carna Biosciences, Inc. (ERK2)
Experiment: MEK1-inhibiting activity, fluorescent polarization method (CRAF/MEK1/ERK2 cascade, IMAP)
Assay type: biochemical
Settings: Table 3; read-out: MEK1 IC50
Use µM as the unit, but write only the number.

Answered examples (5):
CCS(=O)(=O)Nc1cccc(Cc2cc(C(N)=O)c(Nc3ccc(I)cc3F)c(F)c2F)c1; 0.383
CNS(=O)(=O)Nc1cccc(Cc2cc(C(=O)NC3CC3)c(Nc3ccc(I)cc3F)c(F)c2F)c1; 0.268
CC(C)(C)ONC(=O)c1cc(Cc2ccnc(NS(=O)(=O)NC3CC3)c2F)c(F)c(F)c1Nc1ccc(I)cc1Cl; 0.013
Cn1c(Nc2ccc(I)cc2F)c(C(=O)NC2CC2)cc(Cc2ccnc(NS(=O)(=O)NC3CC3)c2F)c1=O; 0.086
COCCNS(=O)(=O)Nc1cc(Cc2cc(C(N)=O)c(Nc3ccc(I)cc3F)c(F)c2F)ccn1; 0.104

So what's the measured IC50 for this one? CCS(=O)(=O)Nc1nccc(Cc2cc(C(=O)NOC)c(Nc3ccc(I)cc3F)c(F)c2F)c1F
0.004

Request: CCS(=O)(=O)Nc1cccc(Cc2cc(C(=O)NOC)c(Nc3ccc(I)cc3F)c(F)c2F)c1F
0.04

Now give it for CCNS(=O)(=O)Nc1cccc(Cc2cc(C(N)=O)c(Nc3ccc(I)cc3F)n(C)c2=O)c1F too.
0.073

Input CC(C)CNS(=O)(=O)Nc1nccc(Cc2cc(C(N)=O)c(Nc3ccc(I)cc3F)c(F)c2F)c1F
0.081

Follow-up item: CC(C)(C)ONC(=O)c1cc(Cc2cccc(NS(=O)(=O)NC3CC3)c2F)c(F)c(F)c1Nc1ccc(I)cc1Cl
0.26

Next up: CNS(=O)(=O)Nc1nccc(Cc2cc(C(N)=O)c(Nc3ccc(C4CC4)cc3F)c(F)c2F)c1F
0.017

Consider next the molecule CCNS(=O)(=O)Nc1nccc(Cc2cc(C(N)=O)c(Nc3ccc(I)cc3F)n(C)c2=O)c1F in the same way.
0.022

Next up: CC(C)CS(=O)(=O)Nc1cccc(Cc2cc(C(N)=O)c(Nc3ccc(I)cc3F)c(F)c2F)c1F
0.199

Another molecule to check: CCS(=O)(=O)Nc1cccc(Cc2cc(C(=O)NOC(C)(C)C)c(Nc3ccc(I)cc3F)n(C)c2=O)c1F
0.023

---

Reported values of pIC50 for individual entries
Target: BRAF (Homo sapiens)
Construct: purchased Eurofins Genomics KK; (BRAF); Thermo Fisher Scientific Inc. (MEK1)
Test: BRAF-inhibiting activity, time-resolved fluorescence-fluorescence resonance energy transfer assay
Assay type: biochemical
Settings: read-out: BRAF IC50; Table 3
Quick note: pIC50 means taking -log10 of the concentration in moles per liter.

Would you please look over these solved cases?
CCCS(=O)(=O)Nc1cccc(Cc2cc(C(N)=O)c(Nc3ccc(I)cc3F)c(F)c2F)c1F; 8.30
CNS(=O)(=O)Nc1nccc(Cn2cc(C(=O)NC3CC3)c(Nc3ccc(I)cc3F)c(C)c2=O)c1F; 8.05

Can you look up the measured pIC50 of CNS(=O)(=O)Nc1cccc(Oc2cc(F)cc(Nc3ccc(I)cc3F)c2C(N)=O)c1 [Ref-2, reference compound] for me?
7.92

# iterate: CNS(=O)(=O)Nc1cccc(Cc2cc(C(=O)NC3CC3)c(Nc3ccc(C4CC4)cc3F)c(F)c2F)c1F
7.77
